- procedure.summary: qHTS of pediatric cancer cell lines to identify multiple opportunities for drug repurposing: Primary screen for SK-N-SH cells (AID 1347098); also: nearly all actives have a fitted effect of over 65% in size
- condition: SK-N-SH viability, CellTiter-Glo luminescence, 48 h; series mostly up to 57 µM
Records with an inconclusive call do not appear. The source made the active and inactive calls. Calls follow the shape of the dose curve; as a rule, active = well fitted cell-killing curve with a large enough effect; inconclusive = small, poorly fitted or top-dose-only effect; inactive = no such curve, though single readings can be large or run the other way.
Select the matching outcome among TRUE = active, FALSE = inactive

Here's what some known entries look like.
compound: CNCC[C@@H](Oc1ccccc1C)c1ccccc1
group: FALSE

compound: CC(=O)OCC(=O)[C@@]1(O)CC[C@H]2[C@@H]3CCC4=CC(=O)C=C[C@]4(C)[C@H]3[C@@H](O)C[C@@]21C
group: FALSE

I'd appreciate the recorded outcome for CN1CCC(=C2c3ccccc3Sc3ccccc32)CC1 from this test.
TRUE

I'd appreciate the recorded outcome for O=C(OCC(O)CO)c1ccccc1Nc1ccnc2cc(Cl)ccc12 (centres undefined) from this test.
FALSE

I'd appreciate the recorded outcome for c1ccc(OCc2ccc(CCCN3CCOCC3)cc2)cc1 from this test.
FALSE

I'd appreciate the recorded outcome for CC(=O)OCC(=O)[C@@]12N=C(C)O[C@@H]1C[C@H]1[C@@H]3CCC4=CC(=O)C=C[C@]4(C)[C@H]3[C@@H](O)C[C@@]12C from this test.
FALSE

I'd appreciate the recorded outcome for CC(=O)OCC(=O)[C@@]1(OC(C)=O)[C@@H](C)C[C@H]2[C@@H]3C[C@H](F)C4=CC(=O)C=C[C@]4(C)[C@@]3(F)[C@@H](O)C[C@@]21C from this test.
FALSE

I'd appreciate the recorded outcome for CC(=O)Oc1ccc(C(=C2CCCCC2)c2ccc(OC(C)=O)cc2)cc1 from this test.
FALSE

I'd appreciate the recorded outcome for NC(CS)C(=O)O (centres undefined) from this test.
FALSE

----------
- System: CP250
- procedure.summary: qHTS profiling for inhibitors of Plasmodium falciparum proliferation (AID 504749); also: nearly all actives have a fitted effect of over 60% in size
- condition: P. falciparum in erythrocytes, SYBR Green DNA, 72 h; series mostly up to 28.7 µM
Inconclusive results are not listed. Activity calls are given as the source filed them. Calls follow the shape of the dose curve; as a rule, active = well fitted inhibition curve with a large enough effect; inconclusive = small, poorly fitted or top-dose-only effect; inactive = flat fitted curve, though single readings scatter.
Select the matching outcome among class 1 for active, class 0 for inactive

Here's what some known entries look like.
compound: CCCCOc1ccc(OCCCN2CCOCC2)cc1
group: class 0
//
compound: Cc1cccc(C)c1NC(=O)CN1CCN(CCCC(c2ccc(F)cc2)c2ccc(F)cc2)CC1
group: class 0

I'd appreciate the recorded outcome for Cc1cc(N)c2cc(NC(=O)Nc3ccc4nc(C)cc(N)c4c3)ccc2n1 from this test.
class 1

I'd appreciate the recorded outcome for O=c1ccc2ccccc2o1 from this test.
class 0

I'd appreciate the recorded outcome for COc1cc(C(=S)N2CCOCC2)cc(OC)c1OC from this test.
class 0

I'd appreciate the recorded outcome for CC(O)(P(=O)(O)O)P(=O)(O)O from this test.
class 0

I'd appreciate the recorded outcome for Cc1c(C(N)=O)cc([N+](=O)[O-])cc1[N+](=O)[O-] from this test.
class 0

I'd appreciate the recorded outcome for CCCCCCCCCCCCCCCCOP(=O)([O-])OCC[N+](C)(C)C from this test.
class 0

I'd appreciate the recorded outcome for CN1C2CCC1CC(OC(=O)c1c[nH]c3ccccc13)C2 (stereo not given) from this test.
class 0

I'd appreciate the recorded outcome for N[C@@H](Cc1cnc[nH]1)C(=O)O from this test.
class 0

----------
- Test system: JCK
- procedure.summary: qHTS profiling for inhibitors of Plasmodium falciparum proliferation (AID 504749); also: nearly all actives have a fitted effect of over 60% in size
- condition: P. falciparum in erythrocytes, SYBR Green DNA, 72 h; series mostly up to 28.7 µM
Results filed as inconclusive are left out. The source made the active and inactive calls. Calls come from the whole dose curve; as a rule, active = well fitted inhibition curve with a large enough effect; inconclusive = small, poorly fitted or top-dose-only effect; inactive = flat fitted curve, though single readings scatter.
Select the matching outcome among active, inactive

I'd appreciate the recorded outcome for C#C[C@]1(OC(C)=O)CC[C@H]2[C@@H]3CCC4=C[C@@H](OC(C)=O)CC[C@@H]4[C@H]3CC[C@@]21C from this test.
inactive
